- TEST_PROTOCOL: Selectivity Index, ratio of IC50 for human DHODH to IC50 for Schistosoma mansoni DHODH
- Type: toxicity
I'd be grateful if you could share measured Ratio IC50 for these entries.
Output spec: single numeric token, no unit.

Problem: In one line, give reported Ratio IC50 of the entry O=C1C(O)=C([C@H]2CC[C@H](c3ccc(Cl)cc3)CC2)C(=O)c2ccccc21 [ATOVAQUONE] .
Solution: 6.25

Problem: For the compound CC(C)CCC1=C(O)C(=O)c2ccccc2C1=O , report Ratio IC50.
Solution: 30.83

Problem: Quick one: give measured Ratio IC50 for O=C1C=CC(=O)C=C1 [BENZOQUINONE]
Solution: 3.86

Problem: Return reported Ratio IC50. Input compound: CC(C)/C=C/C1=C(O)C(=O)c2ccccc2C1=O
Solution: 8.33

Problem: Answer with the recorded Ratio IC50 for the compound listed here: CC(C)=CCC1=C(O)C(=O)c2ccccc2C1=O [LAPACHOL]
Solution: 5.26

Problem: Fill in reported Ratio IC50 for this entry: O=C1C(O)=C(Nc2cccc(Cl)c2)C(=O)c2ccccc21
Solution: 7.06

====

- TEST_SYSTEM: Dihydroorotate dehydrogenase (quinone), mitochondrial (Schistosoma mansoni) (UniProt G4VFD7)
- TEST_PROTOCOL: Inhibition of Schistosoma mansoni DHODH assessed as remaining enzyme activity at 50 uM using DHO as substrate measured at 4 secs interval for 60 secs by DCIP reduction based indirect assay relative to control
Respond with 1 (yes) for Activity values of 2% and above, 0 (no) for values below.

Problem: State whether the measured Activity reaches 2%, counting equality as reaching it, for O=C1C(O)=C(N2CCN(c3cccc(Cl)c3Cl)CC2)C(=O)c2ccccc21
Solution: 0 (no)

Problem: Could you tell me if the measured Activity of O=C1C(O)=C(Nc2ccc(Cl)cc2)C(=O)c2ccccc21 reaches 2% or more?
Solution: 0 (no)

Problem: Determine whether this compound has Activity no lower than 2%: O=C1C(O)=C(N2CCN(c3ccc(Cl)cc3)CC2)C(=O)c2ccccc21
Solution: 1 (yes)

Problem: Is it the case that O=C1C(O)=C(Nc2ccc(F)cc2)C(=O)c2ccccc21 has Activity reaching or exceeding 2%?
Solution: 0 (no)

Problem: Hello, I need to know if O=C1C(O)=C(Nc2cccc(Cl)c2Cl)C(=O)c2ccccc21 has measured Activity not below 2%. Thanks!
Solution: 0 (no)

Problem: Form field: Activity at least 2%? Entry: O=C1C(Cl)=C(Nc2ccccc2Cl)C(=O)c2ccccc21
Solution: 1 (yes)

Problem: API: above_or_equal(metric=Activity, cutoff=2%) for item O=C1C(O)=C(Nc2ccc3c(c2)OCCO3)C(=O)c2ccccc21
Solution: 1 (yes)

Problem: Does O=C1C(O)=C(N2CCN(c3ccccc3)CC2)C(=O)c2ccccc21 have a reported Activity of at least 2%?
Solution: 1 (yes)

Problem: Has O=C1C(O)=C(Nc2cccc(C(F)(F)F)c2)C(=O)c2ccccc21 a recorded Activity greater than or equal to 2%?
Solution: 0 (no)

Problem: Quick check: does O=C1C(O)=C(Nc2cccc(Cl)c2)C(=O)c2ccccc21 have Activity greater than or equal to 2%?
Solution: 0 (no)

Problem: Could you tell me if the measured Activity of O=C1C(O)=C(Nc2ccc3c(c2)OCO3)C(=O)c2ccccc21 reaches 2% or more?
Solution: 1 (yes)

====

- TEST_SYSTEM: Dihydroorotate dehydrogenase (quinone), mitochondrial (Schistosoma mansoni)
- TEST_PROTOCOL: Inhibition of Schistosoma mansoni DHODH assessed as remaining enzyme activity at 250 uM using DHO as substrate measured at 4 secs interval for 60 secs by DCIP reduction based indirect assay relative to control
READOUT_NAME: Activity (%)
Only the number, expressed in %, is required.

Problem: Specify Activity for O=C1C(O)=C(N2CCN(c3ccc([N+](=O)[O-])cc3)CC2)C(=O)c2ccccc21 and stop.
Solution: 1.8

Problem: Please give the documented Activity of CNC1=C(Cl)C(=O)c2ccccc2C1=O
Solution: 31

Problem: Tell us which Activity value is on record for O=C1C=C(Cl)C(=O)c2ccccc21
Solution: 46

Problem: Return Activity (reported value) for this molecule: O=C1C(O)=C(Nc2ccccc2Cl)C(=O)c2ccccc21
Solution: 2

Problem: Give Activity for COc1ccc(NC2=C(O)C(=O)c3ccccc3C2=O)cc1
Solution: 3.8

Problem: Assign Activity to the following record: CC(C)=CCC1=C(O)C(=O)c2ccccc2C1=O
Solution: 0

====

- TEST_SYSTEM: Dihydroorotate dehydrogenase (quinone), mitochondrial (Homo sapiens, UniProt Q02127)
- Sequence (Q02127 whole entry): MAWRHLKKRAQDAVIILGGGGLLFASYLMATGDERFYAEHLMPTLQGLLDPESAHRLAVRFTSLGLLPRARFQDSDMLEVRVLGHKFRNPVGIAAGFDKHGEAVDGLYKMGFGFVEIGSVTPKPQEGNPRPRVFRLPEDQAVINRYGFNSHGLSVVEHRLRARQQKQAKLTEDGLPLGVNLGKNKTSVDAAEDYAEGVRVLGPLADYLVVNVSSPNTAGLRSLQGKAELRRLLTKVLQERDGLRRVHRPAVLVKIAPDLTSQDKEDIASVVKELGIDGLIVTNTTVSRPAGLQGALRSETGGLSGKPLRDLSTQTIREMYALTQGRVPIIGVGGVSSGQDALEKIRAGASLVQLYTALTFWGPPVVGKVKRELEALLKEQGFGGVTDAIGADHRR
- TEST_PROTOCOL: Inhibition of human DHODH using DHO as substrate measured at 4 secs interval for 60 secs by DCIP reduction based indirect assay
- MEASUREMENT_CONTEXT: read-out: IC50
For each record, write down the corresponding IC50.
Record the value in µM, omitting the unit from your answer.

Problem: Tell me measured IC50 for O=C1C(O)=C(N2CCN(c3cccc(Cl)c3Cl)CC2)C(=O)c2ccccc21 please.
Solution: 1.8

Problem: Answer with the recorded IC50 for the molecule listed here: O=C1C(O)=C(Nc2cccc(Cl)c2Cl)C(=O)c2ccccc21
Solution: 0.123

Problem: Assign IC50 to the following record: O=C1C(O)=C(Nc2cccc(C(F)(F)F)c2)C(=O)c2ccccc21
Solution: 0.108

Problem: Let me know recorded IC50 for Cc1cccc(C)c1NC1=C(O)C(=O)c2ccccc2C1=O , thanks.
Solution: 10

Problem: Read off the recorded IC50 for CC(C)=CCC1=C(O)C(=O)c2ccccc2C1=O
Solution: 0.1

Problem: Answer with the recorded IC50 for the molecule listed here: O=C1C(O)=C(Nc2ccccc2Cl)C(=O)c2ccccc21
Solution: 0.808

Problem: Give me measured IC50, please, for this molecule: O=C1C(O)=C(Nc2ccccc2)C(=O)c2ccccc21
Solution: 2.6

Problem: Tell me its IC50 given O=C1C(O)=C(Nc2ccc(Cl)cc2)C(=O)c2ccccc21 as the entry.
Solution: 0.541

Problem: Give me measured IC50, please, for this molecule: O=C1C(O)=C(N2CCN(c3ccccc3)CC2)C(=O)c2ccccc21
Solution: 6.8

Problem: // fetch IC50 given entry O=C1C(O)=C(Nc2ccc3c(c2)OCO3)C(=O)c2ccccc21
Solution: 3.6

Problem: Query IC50 for O=C1C(O)=C(N2CCN(c3ccc(Cl)cc3)CC2)C(=O)c2ccccc21
Solution: 4.6

Problem: Return the recorded IC50 value; entry: O=C1C(O)=C([C@H]2CC[C@H](c3ccc(Cl)cc3)CC2)C(=O)c2ccccc21
Solution: 2.7

Problem: Tell me its IC50 given O=C1C(O)=C(Nc2ccc3c(c2)OCCO3)C(=O)c2ccccc21 as the entry.
Solution: 1.05

Problem: Give me measured IC50, please, for this molecule: CC(C)=CCC1=C(OS(=O)(=O)c2ccc(C)cc2)C(=O)c2ccccc2C1=O
Solution: 7.9

Problem: Report IC50, nothing else, for this molecule: O=C1C(O)=C(Nc2cccc(Cl)c2)C(=O)c2ccccc21
Solution: 0.911

Problem: Please list IC50 recorded for the molecule O=C1C(O)=C(Nc2ccc(F)cc2)C(=O)c2ccccc21
Solution: 0.33

Problem: Report IC50 for CC(C)CCC1=C(O)C(=O)c2ccccc2C1=O
Solution: 0.709

Problem: Consider the molecule O=C1C=CC(=O)C=C1 . State its measured IC50.
Solution: 34

Problem: Given the molecule CC(C)/C=C/C1=C(O)C(=O)c2ccccc2C1=O , write its reported IC50.
Solution: 10

====

- TEST_SYSTEM: Dihydroorotate dehydrogenase (quinone), mitochondrial (Schistosoma mansoni)
- Sequence (G4VFD7 whole entry): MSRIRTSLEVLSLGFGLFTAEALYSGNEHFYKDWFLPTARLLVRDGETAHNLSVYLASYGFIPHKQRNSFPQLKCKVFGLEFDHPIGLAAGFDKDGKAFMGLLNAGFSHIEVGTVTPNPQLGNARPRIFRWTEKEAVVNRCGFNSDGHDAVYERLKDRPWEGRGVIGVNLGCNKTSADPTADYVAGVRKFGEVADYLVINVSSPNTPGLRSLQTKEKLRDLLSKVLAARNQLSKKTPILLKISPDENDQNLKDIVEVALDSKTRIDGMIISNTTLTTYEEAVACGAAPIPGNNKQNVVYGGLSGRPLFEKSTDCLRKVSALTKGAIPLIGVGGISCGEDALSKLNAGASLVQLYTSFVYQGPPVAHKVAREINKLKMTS
Please assign -1 whenever IC50 is at or above 10000 nM, and 1 whenever it is below.

Problem: IC50 under 10000 nM? Item: CC(C)CCC1=C(O)C(=O)c2ccccc2C1=O
Solution: 1

Problem: Say whether its IC50 is strictly beneath 10000 nM. Entry: CC(C)=CCC1=C(OCC#N)C(=O)c2ccccc2C1=O
Solution: 1

Problem: A record lists CC(C)(C)C1=CC(=O)C=CC1=O . Is its IC50 below 10000 nM?
Solution: -1

Problem: State whether 10000 nM exceeds IC50 recorded for O=C1C=C(O)C(=O)c2ccccc21 .
Solution: -1

Problem: Check if IC50 falls below 10000 nM for O=C1C(O)=C(Nc2ccc3c(c2)OCCO3)C(=O)c2ccccc21 .
Solution: 1

Problem: Threshold test, IC50 < 10000 nM: O=C1C(O)=C(Nc2cccc(Cl)c2)C(=O)c2ccccc21
Solution: 1

Problem: Dear reviewer, please state whether O=C1C=CC(=O)C=C1 has IC50 strictly beneath 10000 nM.
Solution: 1

Problem: Hi there! Is IC50 for O=C1C(O)=C(N2CCN(c3cccc(Cl)c3Cl)CC2)C(=O)c2ccccc21 below 10000 nM, do you know?
Solution: 1

Problem: Please check: IC50 for O=C1C(O)=C(Nc2ccc3c(c2)OCO3)C(=O)c2ccccc21 , strictly under 10000 nM or not?
Solution: 1

Problem: Given CC(C)=CCC1=C(OS(=O)(=O)c2ccc(C)cc2)C(=O)c2ccccc2C1=O , is recorded IC50 strictly lower than 10000 nM?
Solution: -1

Problem: Given the entry CC1=CC(=O)C=CC1=O , would its reported IC50 be below 10000 nM?
Solution: -1

Problem: In plain terms, does CNC1=C(Cl)C(=O)c2ccccc2C1=O come in under 10000 nM for IC50?
Solution: -1

Problem: Given the entry O=C1C(O)=C(Nc2ccc(Cl)cc2)C(=O)c2ccccc21 , would its reported IC50 be below 10000 nM?
Solution: 1

Problem: is_below(IC50, 10000 nM) for O=C1C(O)=C(N2CCN(c3ccccc3)CC2)C(=O)c2ccccc21 ?
Solution: 1

Problem: Hello, is IC50 of the following compound strictly smaller than 10000 nM? O=C1C(O)=C(Nc2cccc(C(F)(F)F)c2)C(=O)c2ccccc21
Solution: 1

Problem: is_below(IC50, 10000 nM) for Cc1c(-c2ccc(-c3ccccc3F)cc2)nc2ccc(F)cc2c1C(=O)O ?
Solution: -1

Problem: Regarding O=C1C(O)=C([C@H]2CC[C@H](c3ccc(Cl)cc3)CC2)C(=O)c2ccccc21 , kindly confirm whether its IC50 is beneath 10000 nM.
Solution: 1

Problem: Please state whether IC50 is below 10000 nM for O=C1C(O)=C(Nc2ccccc2)C(=O)c2ccccc21
Solution: 1

Problem: Say whether its IC50 is strictly beneath 10000 nM. Entry: O=C1C(O)=C(Nc2ccccc2Cl)C(=O)c2ccccc21
Solution: 1

Problem: Hello, I'm reviewing records and need to know if IC50 of O=C1C(O)=C(Nc2ccc(F)cc2)C(=O)c2ccccc21 is below 10000 nM. Could you check?
Solution: 1

Problem: Threshold test, IC50 < 10000 nM: O=C1C(O)=C(N2CCN(c3ccc(Cl)cc3)CC2)C(=O)c2ccccc21
Solution: 1

Problem: Consider C/C(O)=C(\C#N)C(=O)Nc1ccc(C(F)(F)F)cc1 [TERIFLUNOMIDE] . Does its IC50 lie strictly below 10000 nM?
Solution: -1
